Target: E. coli ODC (Escherichia coli, UniProt P21169)
Sequence (P21169 whole entry): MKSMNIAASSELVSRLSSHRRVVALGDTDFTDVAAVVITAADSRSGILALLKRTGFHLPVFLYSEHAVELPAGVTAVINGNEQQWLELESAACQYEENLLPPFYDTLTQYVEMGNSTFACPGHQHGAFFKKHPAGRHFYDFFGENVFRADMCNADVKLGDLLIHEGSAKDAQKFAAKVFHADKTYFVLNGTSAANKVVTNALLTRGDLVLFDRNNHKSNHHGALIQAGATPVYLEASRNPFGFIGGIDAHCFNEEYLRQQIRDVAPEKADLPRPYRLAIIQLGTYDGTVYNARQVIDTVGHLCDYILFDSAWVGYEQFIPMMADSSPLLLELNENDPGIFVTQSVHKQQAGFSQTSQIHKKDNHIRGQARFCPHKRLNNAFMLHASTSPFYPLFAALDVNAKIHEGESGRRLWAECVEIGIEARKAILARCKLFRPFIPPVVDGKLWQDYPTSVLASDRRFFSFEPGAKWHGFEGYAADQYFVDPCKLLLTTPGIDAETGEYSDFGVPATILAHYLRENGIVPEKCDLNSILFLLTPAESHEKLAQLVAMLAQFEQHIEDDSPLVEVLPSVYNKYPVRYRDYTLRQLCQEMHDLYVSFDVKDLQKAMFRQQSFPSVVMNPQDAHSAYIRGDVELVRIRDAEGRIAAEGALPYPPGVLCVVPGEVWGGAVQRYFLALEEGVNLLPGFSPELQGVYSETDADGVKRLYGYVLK
Experiment: time-dependent inhibition of bacterial ODC (in vitro), E. coli
Conditions: E. coli ODC; concentration giving half-maximal rate of inhibition; 20° C., pH 8.25
pKi: −log10 of the molar value.
observation_type: pKi

{"compound": "NCCCC(N)(CF)C(=O)O (stereo not shown)", "endpoint_result": 3.44}

----------
Target: P. aeruginosa ODC (Pseudomonas aeruginosa)
Construct: 14CO2 release from ornithine
Sequence (Q9HVQ3 1-387): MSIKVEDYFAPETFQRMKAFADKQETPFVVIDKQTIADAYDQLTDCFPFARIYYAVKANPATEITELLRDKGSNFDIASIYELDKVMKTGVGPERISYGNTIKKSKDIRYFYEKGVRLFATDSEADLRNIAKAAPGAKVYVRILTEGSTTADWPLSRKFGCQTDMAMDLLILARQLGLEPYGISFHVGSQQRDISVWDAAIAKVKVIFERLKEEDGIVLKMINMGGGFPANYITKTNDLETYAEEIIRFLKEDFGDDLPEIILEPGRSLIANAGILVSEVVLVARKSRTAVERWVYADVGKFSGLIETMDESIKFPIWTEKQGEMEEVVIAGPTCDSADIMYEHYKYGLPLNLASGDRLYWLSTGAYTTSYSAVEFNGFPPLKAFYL
Test: time-dependent inhibition of bacterial ODC (in vitro), P. aeruginosa
Settings: P. aeruginosa ODC; concentration giving half-maximal rate of inhibition; 20° C., pH 7.5
observation_type: Ki (µM)

{"compound": "NCCCC(N)(CF)C(=O)O (stereo not shown)", "endpoint_result": 300}

----------
Target: rat liver ornithine decarboxylase (Rattus norvegicus)
Construct: rat liver ornithine decarboxylase in vitro; from tissue; host or cells: rat liver
Sequence (P09057 1-461): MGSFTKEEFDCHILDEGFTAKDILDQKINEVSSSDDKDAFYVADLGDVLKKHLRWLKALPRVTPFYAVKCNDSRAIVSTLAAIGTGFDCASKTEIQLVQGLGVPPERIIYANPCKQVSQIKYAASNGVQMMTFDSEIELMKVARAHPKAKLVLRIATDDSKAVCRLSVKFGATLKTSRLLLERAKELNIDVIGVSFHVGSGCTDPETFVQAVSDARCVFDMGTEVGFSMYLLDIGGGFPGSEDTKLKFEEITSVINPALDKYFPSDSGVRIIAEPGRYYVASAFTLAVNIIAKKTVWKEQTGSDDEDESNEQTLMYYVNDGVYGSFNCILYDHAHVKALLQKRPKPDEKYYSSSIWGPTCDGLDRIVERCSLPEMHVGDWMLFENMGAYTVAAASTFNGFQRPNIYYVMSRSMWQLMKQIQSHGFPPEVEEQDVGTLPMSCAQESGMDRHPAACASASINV
Experiment: time-dependent inhibition of rat liver ODC (in vitro)
Assay type: biochemical
Details: concentration of compound which gives half-maximal rate of inhibition; time-dependent inhibition
pKi: −log10 of the molar value.

{"compound": "NCCCC(N)(CF)C(=O)O (centres unmarked) [MFMO]", "pKi": 4.12}
{"compound": "NCCCCC(N)(CF)C(=O)O (centres unmarked) [MFML, 2-fluoromethyl-2,6-diaminohexanoic acid]", "pKi": 3.37}
